# system_name: Cytochrome P450 3A4 (Homo sapiens) (UniProt P08684)
# Sequence (P08684 whole entry, looked up): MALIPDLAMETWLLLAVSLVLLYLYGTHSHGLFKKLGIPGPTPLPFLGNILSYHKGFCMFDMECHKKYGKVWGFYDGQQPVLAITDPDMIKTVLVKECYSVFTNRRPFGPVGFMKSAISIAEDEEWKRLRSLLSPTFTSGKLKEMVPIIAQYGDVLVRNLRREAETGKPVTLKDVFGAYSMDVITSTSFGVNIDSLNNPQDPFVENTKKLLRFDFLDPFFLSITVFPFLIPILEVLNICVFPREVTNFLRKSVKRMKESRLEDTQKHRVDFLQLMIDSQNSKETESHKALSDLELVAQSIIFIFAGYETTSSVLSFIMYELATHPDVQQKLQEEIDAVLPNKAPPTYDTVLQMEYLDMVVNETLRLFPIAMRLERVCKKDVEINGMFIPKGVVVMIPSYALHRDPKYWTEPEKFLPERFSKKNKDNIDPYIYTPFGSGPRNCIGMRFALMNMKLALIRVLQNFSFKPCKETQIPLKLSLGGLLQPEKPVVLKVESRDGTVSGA
# experimental_details: Cytochrome panel assay with activity outcomes
# assay_context: recombinant CYP, pro-luciferin dealkylation, luminescence, p450-cyp3a4; series mostly up to 57.1 µM
In all, about 16,000 compounds went through this assay and about 5,100 (32%) were called active. Roughly 25% stayed inconclusive and do not appear here. Calls come from the whole dose curve; as a rule, active = well fitted curve in the direction sought with a large enough effect; inconclusive = small, poorly fitted or top-dose-only effect, or effect the other way; inactive = no such curve, though single readings can be large or run the other way. The list shows a part of the results.
Pick one: T (active), F (inactive)

Worked examples, 2 molecules total:
# molecule, class
measured = [
    ("Cc1ccc(C)c(-c2nn(-c3cc(N4CCN(CCO)CC4)ccc3[N+](=O)[O-])c(=O)c3ccccc23)c1", "T"),
    ("Cc1cc(C)nc(SCC(=O)Nc2ccccc2[N+](=O)[O-])n1", "F"),
]

Inquiry: Called result for "Cc1c(C(=O)O)oc2ccc(S(=O)(=O)NCc3ccc4c(c3)OCO4)cc12"
Reply text: T

Inquiry: Called result for CC1CC/C(=C\c2ccc3c(c2)OCO3)C(=O)/C1=C/c1ccc2c(c1)OCO2 (stereo not drawn)
Reply text: T

Inquiry: Called result for "Cc1cc(Nc2ccccc2)nc(N)n1"
Reply text: F

Inquiry: Called result for "C[N+](C)(C)CCCCCNCC12CC3CC(CC(C3)C1)C2"
Reply text: F

Inquiry: Called result for "COc1c(O[C@H]2O[C@@H](CO)[C@@H](O)[C@@H](O)[C@@H]2O)cc2c(c1OC)-c1ccc(SC)c(=O)cc1[C@H](NC(C)=O)CC2"
Reply text: F

Inquiry: Called result for CCCC1CCC(c2ccc(C(N)=O)cc2)CC1 (stereo not drawn)
Reply text: F

Inquiry: Called result for "CCN(c1nc(N)c(C(=O)N=C(N)N)nc1Cl)C(C)C"
Reply text: F

Inquiry: Called result for OC(c1ccccc1)(c1ccc(F)cc1)C(c1ccccc1)N1CCOCC1 (stereo not drawn)
Reply text: T

Where do these numbers come from? They come from PubChem BioAssay AID1851.
